# MEASUREMENT_NOTES: Inhibition of human washed platelet aggregation
Where a SMILES comes first, the peptide text is derived from it. Bridges are numbered along the chain shown (N, C = ends). [ ]: non-standard residue; d: D form. NMeR = CN[C@@H](CCCNC(=N)N)C(=O)O; Pen = CC(C)(S)[C@H](N)C(=O)O
OBSERVED_PROPERTY: Ki

### Prompt Which value of Ki has been reported for CC(=O)N[C@H]1CSSC(C)(C)[C@@H](C(N)=O)NC(=O)[C@H](CC(=O)O)NC(=O)CNC(=O)[C@H](CCCN=C(N)N)N(C)C1=O (Ac-C[NMeR]GD[Pen]-NH2; disulfide 1-5) in the records?
### Response 62 nM

====

# MEASUREMENT_NOTES: Inhibition of canine platelet-rich plasma agregation induced by ADP
Where a SMILES comes first, the peptide text is derived from it. Bridges are numbered along the chain shown (N, C = ends).
OBSERVED_PROPERTY: IC50

Reference set (2 entries):
CC(=O)N[C@H]1CSSC[C@@H](C(N)=O)NC(=O)[C@H](CO)NC(=O)[C@H](CC(=O)O)NC(=O)CNC(=O)[C@H](CCCN=C(N)N)NC1=O (Ac-CRGDSC-NH2; disulfide 1-6) : 32.7 µM
CC(=O)N[C@@H](CCCNC(=N)N)C(=O)NCC(=O)N[C@@H](CC(N)=O)C(=O)N[C@@H](CO)C(N)=O (Ac-RGNS-NH2) : > 200 µM

Now turn to the next compound.
### Prompt Which value of IC50 has been reported for `CC(=O)N[C@H]1CSSC(C)(C)[C@@H](C(N)=O)NC(=O)[C@H](CC(=O)O)NC(=O)CNC(=O)[C@H](CCCN=C(N)N)NC(=O)CNC1=O` in the records?
### Response 11.4 µM

====

# MEASUREMENT_NOTES: Inhibition of canine platelet-rich plasma agregation induced by ADP
pIC50: −log10 of the molar value.
OBSERVED_PROPERTY: pIC50

### Prompt Which value of pIC50 has been reported for `Ac-HHLGGAKQAGDV-OH` in the records?
### Response < 3.70

====

Exercise: for every item that follows, state its recorded pIC50.
# MEASUREMENT_NOTES: Inhibition of canine platelet-rich plasma agregation induced by ADP
pIC50: −log10 of the molar value. Where a SMILES comes first, the peptide text is derived from it. Bridges are numbered along the chain shown (N, C = ends). [ ]: non-standard residue; d: D form. Pen = CC(C)(S)[C@H](N)C(=O)O

Reference set (5 entries):
CC(=O)N[C@H]1CSSC[C@@H](C(N)=O)NC(=O)[C@H](CC(=O)O)NC(=O)CNC(=O)[C@H](CCCN=C(N)N)NC(=O)CNC1=O : 4.28
CC(=O)N[C@@H](CCCNC(=N)N)C(=O)NCC(=O)N[C@H](CC(=O)N[C@@H](CO)C(N)=O)C(=O)O : < 3.70
CC(=O)N[C@@H](Cc1cnc[nH]1)C(=O)NCC(=O)N[C@@H](CC(=O)O)C(=O)N[C@@H](CO)C(N)=O (Ac-HGDS-NH2) : < 3.70
CC(=O)N[C@@H](CCCNC(=N)N)C(=O)N[C@@H](C)C(=O)N[C@@H](CC(=O)O)C(=O)N[C@@H](CO)C(N)=O (Ac-RADS-NH2) : < 3.70
CC(=O)N[C@@H](CCCNC(=N)N)C(=O)NCC(=O)N[C@@H](CC(=O)O)C(=O)N[C@@H](Cc1ccc(O)cc1)C(N)=O (Ac-RGDY-NH2) : 3.99

Now turn to the next compound.
### Prompt Which value of pIC50 has been reported for CC(=O)N[C@@H](CCCCN)C(=O)N[C@H]1CSSC(C)(C)[C@@H](C(=O)O)NC(=O)[C@H](CC(=O)O)NC(=O)CNC(=O)[C@H](C)NC1=O (Ac-KCAGD[Pen]-OH; disulfide 2-6) in the records?
### Response < 3.70

====

# MEASUREMENT_NOTES: Inhibition of canine platelet-rich plasma agregation induced by ADP
Where a SMILES comes first, the peptide text is derived from it. Bridges are numbered along the chain shown (N, C = ends). [ ]: non-standard residue; d: D form. hArg = N=C(N)NCCCC[C@H](N)C(=O)O; Pen = CC(C)(S)[C@H](N)C(=O)O
Exercise: for every item that follows, state its recorded pIC50.
One number for each entry, as −log10 of the molar value.

CC(=O)N[C@H]1CSSC(C)(C)[C@@H](C(N)=O)NC(=O)[C@H](CC(=O)O)NC(=O)CNC(=O)[C@H](CCCCN)NC1=O (Ac-CKGD[Pen]-NH2; disulfide 1-5) : 4.26
CC(=O)N[C@@H]1C(=O)N[C@@H](CCCN=C(N)N)C(=O)NCC(=O)N[C@@H](CC(=O)O)C(=O)N[C@H](C(N)=O)CSSC1(C)C : 5.10
CC(=O)N[C@@H](CCCNC(=N)N)C(=O)NCC(=O)N[C@@H](CC(=O)O)C(=O)N[C@H](C(N)=O)C(C)C (Ac-RGDV-NH2) : 4.26

Now turn to the next compound.
### Prompt Which value of pIC50 has been reported for CC(=O)N[C@H]1CSSC(C)(C)[C@@H](C(N)=O)NC(=O)[C@H](CC(=O)O)NC(=O)CNC(=O)[C@H](CCCCN=C(N)N)NC1=O (Ac-C[hArg]GD[Pen]-NH2; disulfide 1-5) in the records?
### Response 5.41

====

# MEASUREMENT_NOTES: Inhibition of canine platelet-rich plasma agregation induced by ADP
Exercise: for every item that follows, state its recorded IC50.
Answers are plain numbers, in µM.

Reference set (3 entries):
CC(=O)N[C@@H]1C(=O)N(C)[C@@H](CCCN=C(N)N)C(=O)NCC(=O)N[C@@H](CC(=O)O)C(=O)N[C@H](C(N)=O)C(C)(C)SSC1(C)C : 0.37
CC(=O)N[C@@H](CCCNC(=N)N)C(=O)NCC(=O)N[C@@H](CC(=O)O)C(N)=O : 138
CC(=O)N[C@H]1CSSC(C)(C)[C@@H](C(N)=O)NC(=O)[C@H](CC(=O)O)NC(=O)CN(C)C(=O)[C@H](CCCN=C(N)N)NC1=O : 73.4

### Prompt Which value of IC50 has been reported for `CC(=O)N[C@@H](CCCNC(=N)N)C(=O)NCC(=O)N[C@@H](CC(=O)O)C(=O)NCCc1ccccc1` in the records?
### Response 75.9

====

# MEASUREMENT_NOTES: Inhibition of canine platelet-rich plasma agregation induced by ADP
Where a SMILES comes first, the peptide text is derived from it. Bridges are numbered along the chain shown (N, C = ends). [ ]: non-standard residue; d: D form. NMeR = CN[C@@H](CCCNC(=N)N)C(=O)O; Pen = CC(C)(S)[C@H](N)C(=O)O
Exercise: for every item that follows, state its recorded pIC50.
One number for each entry, as −log10 of the molar value.

Reference set (2 entries):
CC(=O)N[C@H]1CSSC[C@@H](C(N)=O)NC(=O)[C@H](CC(=O)O)NC(=O)CNC(=O)[C@H](CCCN=C(N)N)NC1=O : 4.79
CC(=O)N[C@H]1CSSC(C)(C)[C@@H](C(N)=O)NC(=O)[C@H](CC(=O)O)NC(=O)CNC(=O)[C@H](CCCN=C(N)N)N(C)C1=O (Ac-C[NMeR]GD[Pen]-NH2; disulfide 1-5) : 6.45

Now turn to the next compound.
### Prompt Which value of pIC50 has been reported for `CC(=O)N[C@@H](Cc1c[nH]cn1)C(=O)N[C@@H](Cc1c[nH]cn1)C(=O)N[C@@H](CC(C)C)C(=O)NCC(=O)NCC(=O)N[C@@H](C)C(=O)N[C@@H](CCCCN)C(=O)N[C@H]1CSSC(C)(C)[C@@H](C(N)=O)NC(=O)[C@H](CC(=O)O)NC(=O)CNC(=O)[C@H](CCCN=C(N)N)NC1=O` in the records?
### Response 5.02

====

Exercise: for every item that follows, state its recorded IC50.
# MEASUREMENT_NOTES: Inhibition of canine platelet-rich plasma agregation induced by ADP
Where a SMILES comes first, the peptide text is derived from it. [ ]: non-standard residue; d: D form. Cit = NC(=O)NCCC[C@H](N)C(=O)O

Reference set (2 entries):
CC(=O)N[C@@H](CCCNC(=N)N)C(=O)NCC(=O)N[C@@H](CCC(=O)O)C(=O)N[C@@H](CO)C(N)=O : > 200 µM
CC(=O)N[C@@H](CCCNC(N)=O)C(=O)NCC(=O)N[C@@H](CC(=O)O)C(=O)N[C@@H](CO)C(N)=O (Ac-[Cit]GDS-NH2) : > 200 µM

Now turn to the next compound.
### Prompt Which value of IC50 has been reported for CC(=O)N[C@@H](CCCCN)C(=O)NCC(=O)N[C@@H](CCC(=O)O)C(=O)N[C@@H](CO)C(N)=O (Ac-KGES-NH2) in the records?
### Response > 200 µM
